B1: TRIM55 (parent)
chain: FQASNPYLPTRGGTTMASGGRFRC

- Variants of: B1
- assay.overview: protein stability index of a GFP-peptide fusion (GPS, HEK-293T) (PSI 1-6); higher = more stable;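 also: lentivirally expressed fusions sorted by FACS into six bins by GFP to DsRed ratio, PSI derived from sequencing read proportions per bin multiplied by bin number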
- condition: c terminus: a fixed tail appended
parameter.measured: protein stability index
Answers are plain numbers.

# chain.sequence, protein stability index
rows = [
    ("AQASNPYLPTRGGTTMASGGRFRC", 3.51),
    ("FLASNPYLPTRGGTTMASGGRFRC", 1.94),
    ("FHASNPYLPTRGGTTMASGGRFRC", 2.99),
    ("HQASNPYLPTRGGTTMASGGRFRC", 3.24),
    ("FQNSNPYLPTRGGTTMASGGRFRC", 2.18),
]

Consider the following items and state reported protein stability index for each.
1. FQASNPRLPTRGGTTMASGGRFRC
2. FQASNPYLPTRGGTTMLSGGRFRC
3. FQASNPYLPTRGGTTMASGGIFRC
4. FQASNPYLPTRGGETMASGGRFRC
5. FQASNPYLPTRGGTLMASGGRFRC
6. FQASNPYLPTRGGTTMASGGEFRC
7. FQASNPYLPNRGGTTMASGGRFRC

[reply]
3.25
2.54
1.42
2.09
1.69
2.18
2.23

For every item in the list below, what is its measured protein stability index?
1. FQASNPYLPERGGTTMASGGRFRC
2. FQASNPYSPTRGGTTMASGGRFRC
3. FQASNPYKPTRGGTTMASGGRFRC
4. FQASNPYLPTRGGTTVASGGRFRC

[reply]
1. 2.99
2. 2.7
3. 1.14
4. 1.27
